Where these numbers come from: paper PMC7072329

target: T1, μ-opioid receptor (rat (endogenous in rat brain), UniProt P33535 1-398); assay: radioligand binding; displacement of [^3H]DAMGO from rat brain membrane homogenate by unlabelled ligand (10^-10 to 10^-5 M); 50 mM Tris-HCl pH 7.4, 35 °C, 45 min; non-specific binding with 10 μM naloxone; IC50 converted into Ki by Cheng-Prusoff, one site competition fit; settings: one partner purified
T1 construct: μ-opioid receptor, rat (Wistar), endogenous in brain membrane homogenate; defined by displacement of [^3H]DAMGO; In membranes, not on intact cells; also called MOR; µ-opioid receptor; source: endogenous, rat brain membrane homogenate
T1 sequence (P33535 whole entry): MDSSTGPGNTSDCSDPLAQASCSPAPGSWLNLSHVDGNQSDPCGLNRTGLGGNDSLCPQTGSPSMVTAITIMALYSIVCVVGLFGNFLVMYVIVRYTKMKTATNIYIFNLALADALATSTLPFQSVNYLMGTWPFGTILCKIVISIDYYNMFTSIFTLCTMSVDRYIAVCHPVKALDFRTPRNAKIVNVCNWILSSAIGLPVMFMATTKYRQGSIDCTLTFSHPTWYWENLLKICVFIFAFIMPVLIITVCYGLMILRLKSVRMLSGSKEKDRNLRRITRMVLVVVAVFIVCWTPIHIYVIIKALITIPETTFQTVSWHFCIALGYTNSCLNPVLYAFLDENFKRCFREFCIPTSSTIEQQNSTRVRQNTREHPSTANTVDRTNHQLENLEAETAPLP
Where no end group is shown, it is not given here. [ ]: non-standard residue; d: D form. Kyn = Nc1ccccc1C(=O)C[C@H](N)C(=O)O
Recorded Ki for the following binders
Measured quantity: Ki (nM)

[[record]]
binder = "YP[Kyn]F-NH2 [Peptide K2]"
measured_quantity = "Ki"
result = 1.39

[[record]]
binder = "YPF[Kyn]-NH2 (N-terminus assumed; SMILES NC(=O)[C@H](CC(=O)c1ccccc1N)NC(=O)[C@H](Cc1ccccc1)NC(=O)[C@@H]1CCCN1C(=O)[C@@H](N)Cc1ccc(O)cc1) [Peptide K3]"
measured_quantity = "Ki"
result = 197

[[record]]
binder = "Y[dA]GF[Kyn]-NH2 [Peptide K6]"
measured_quantity = "Ki"
result = 1.84

[[record]]
binder = "Y[dA]GF[Kyn]-OMe [Peptide K4]"
measured_quantity = "Ki"
result = 2.29

[[record]]
binder = "Y[dA]GF[Kyn]-OH [Peptide K5]"
measured_quantity = "Ki"
result = 9.11

